The entries below come with measured GI50 values attached.
- System: SK-BR-3 cancer cells
- assay overview: Inhibitory activity against proliferation of SK-BR-3 cancer cells (CellTiter-Glo)
- Format: cell-based
- conditions used: Homo sapiens, SK-BR-3, 120 h, ErbB2-overexpressing SK-BR-3 cells, 120 hours after treatment
observed property: GI50

C=CC(=O)Nc1cc(Nc2cc(N3OCC[C@@H]3c3cccc(C#Cc4cccc(O)c4)c3)ncn2)c(OC)cc1N(C)CCN(C)C [Example 312] :: 50 to 500 nM
C=CC(=O)Nc1cc(Nc2cc(N3OCCC3c3cccc(-c4cnn(C)c4)c3)ncn2)c(OC)cc1N1CCC(N2CCN(C3CC3)CC2)CC1 (stereo not shown) [Example 234] :: < 50 nM
C=CC(=O)Nc1cc(Nc2cc(N3OCC[C@@H]3c3cccc(Oc4cc(F)cc(F)c4)c3)ncn2)c(OC)cc1N1CCN(C)CC1 [Example 225] :: < 50 nM
C=CC(=O)Nc1cc(Nc2cc(N3OCC[C@@H]3c3cccc(-c4ccccc4)c3)ncn2)c(OC)cc1N1CCN(C(C)=O)CC1 [Example 215] :: < 50 nM
C=CC(=O)Nc1cc(Nc2cc(N3OCC[C@@H]3c3cccc(-c4cccc(F)c4)c3)ncn2)c(OC)cc1N1C[C@@H](C)O[C@@H](C)C1 [Example 292] :: < 50 nM
C=CC(=O)Nc1cc(Nc2cc(N3OCC[C@@H]3c3cccc(C#Cc4ccccc4)c3)ncn2)c(OC)cc1N1CCN(C)CC1 [Example 296] :: 50 to 500 nM
C=CC(=O)Nc1cc(Nc2cc(N3OCC[C@@H]3c3ccc(F)c(-c4cccc(F)c4)c3)ncn2)c(OC)cc1N1CCN(C)CC1 [Example 308] :: < 50 nM
C=CC(=O)Nc1cc(Nc2cc(N3OCC[C@@H]3c3cc(F)cc(-c4cccc(F)c4)c3)ncn2)c(OC)cc1N1CCC(N2CCOCC2)CC1 [Example 207] :: < 50 nM
C=CC(=O)Nc1cc(Nc2cc(N3OCC[C@@H]3c3cccc(-c4ccc(OC)nc4)c3)ncn2)c(OC)cc1N1CCN(C)CC1 [Example 298] :: < 50 nM
C=CC(=O)Nc1cc(Nc2cc(N3OCC[C@@H]3c3cccc(-c4ccc(O)nc4)c3)ncn2)c(OC)cc1N1CCN(C)CC1 [Example 299] :: 500 to 5000 nM
C=CC(=O)Nc1cc(Nc2cc(N3OCC[C@@H]3c3cccc(-c4cc(F)cc(F)c4)c3)ncn2)c(OC)cc1N1CCC(N2CCN(C3CC3)[C@@H](C)C2)CC1 [Example 274] :: < 50 nM
C=CC(=O)Nc1cc(Nc2cc(N3OCCC3c3cccc(-c4nccs4)c3)ncn2)c(OC)cc1N(C)CCN(C)C (stereo not shown) [Example 238] :: < 50 nM
C=CC(=O)Nc1cc(Nc2cc(N3OCC[C@@H]3c3cccc(-c4ccc(F)cc4F)c3)ncn2)c(OC)cc1N1CCN(C)CC1 [Example 281] :: < 50 nM
C=CC(=O)Nc1cc(Nc2cc(N3OCC[C@@H]3c3cc(F)cc(Oc4ccn(C)n4)c3)ncn2)c(OC)cc1N1CCC(N2CCN(C3CC3)CC2)CC1 [Example 219] :: < 50 nM
C=CC(=O)Nc1cc(Nc2cc(N3OCC[C@@H]3c3cccc(-c4ccc(OC)nc4)c3)ncn2)c(OC)cc1N(C)CCN(C)C [Example 300] :: < 50 nM
C=CC(=O)Nc1cc(Nc2cc(N3OCC[C@@H]3c3ccc(F)c(OCc4cccc(F)c4)c3)ncn2)c(OC)cc1N1CCN(C)CC1 [Example 244] :: < 50 nM
C=CC(=O)Nc1cc(Nc2cc(N3OCCC3c3cccc(C#CC(C)(C)C)c3)ncn2)c(OC)cc1N1CCC(N2CCN(C3CC3)CC2)CC1 (stereo not shown) [Example compound 140] :: 50 to 500 nM
C=CC(=O)Nc1cc(Nc2cc(N3OCC[C@@H]3c3cccc(-c4cccs4)c3)ncn2)c(OC)cc1N1CCC(N2CCN(C3CC3)CC2)CC1 [Example compound 135] :: < 50 nM
C=CC(=O)Nc1cc(Nc2cc(N3OCC[C@@H]3c3cccc(C(=O)NC4CCCCC4)c3)ncn2)c(OC)cc1N1CCC(N2CCN(C3CC3)CC2)CC1 [Example 254] :: < 50 nM
C=CC(=O)Nc1cc(Nc2cc(N3OCCC3c3cccc(-c4cnc5ccnn5c4)c3)ncn2)c(OC)cc1N1CCN(C)CC1 (stereo not shown) [Example 201] :: < 50 nM
C=CC(=O)Nc1cc(Nc2cc(N3OCC[C@@H]3c3cc(F)cc(-c4cccc5ncnn45)c3)ncn2)c(OC)cc1N1CCN(C)CC1 [Example 209] :: < 50 nM
C=CC(=O)Nc1cc(Nc2cc(N3OCC[C@@H]3c3cccc(-c4cccc(F)c4F)c3)ncn2)c(OC)cc1N1CCN(C)CC1 [Example 284] :: < 50 nM
C=CC(=O)Nc1cc(Nc2cc(N3OCCC3c3cccc(-c4ccc(C)s4)c3)ncn2)c(OC)cc1N(C)CCN(C)C (stereo not shown) [Example 213] :: 50 to 500 nM
C=CC(=O)Nc1cc(Nc2cc(N3OCC[C@@H]3c3cccc(Oc4cccc(C(F)(F)F)c4)c3)ncn2)c(OC)cc1N1CCN(C)CC1 [Example compound 93] :: < 50 nM
C=CCN1CCN(c2cc(OC)c(Nc3cc(N4OCC[C@@H]4c4cccc(-c5ccccc5)c4)ncn3)cc2NC(=O)C=C)CC1 [Example 174] :: < 50 nM

Entry source: patent US20240262815A1
